- Tested on: BT-549 breast
- TEST SUMMARY: NCI tumour cell line growth inhibition, 48 h
VALUE KIND: TGI

Note to self: TGI recorded for O=C1CC(c2ccc(N3CCOCC3)cc2)(c2ccsc2)NC(=O)C1Sc1ccccc1Cl (stereo not drawn) was > 100 µM

Sample `O=C(/C=C(\O)c1ccc(Cl)cc1)C(=O)N=Nc1c(O)[nH]c2ccc(Br)cc12` ; TGI observed: > 100 µM

Reported TGI ( `Oc1ccccc1-c1nn(CNc2cccc(Cl)c2)c(=S)o1` ) = > 100 µM

###

- Test system: SF-539 CNS
- TEST SUMMARY: NCI tumour cell line growth inhibition, 48 h
For each record, write down the corresponding TGI.

# `COc1cc2c3c(n(CCCCOC(=O)C(F)(F)F)c(=O)c2cc1OC)-c1cc2c(cc1C3=O)OCO2` with SF-539 CNS: TGI is > 100 µM

Entry CC1=C(C(=O)Nc2ccc(F)c(Cl)c2)C(c2ccccc2Cl)NC(=S)N1 (stereo not given) , tested on SF-539 CNS, has a reported TGI of > 50 µM

SF-539 CNS data for `CS(=O)(=O)NNS(=O)(=O)c1cccc([N+](=O)[O-])c1` ; its TGI: > 100 µM

Entry `O=C(O)CN1CCNCCN(CP(=O)(O)O)CC1` , SF-539 CNS data, TGI value: > 100 µM

# lookup: CC(=O)N1c2ccccc2C23CCN(C)CC4C(C)OCC(C4CC2=O)C13 (stereo not given) on SF-539 CNS, TGI = > 100 µM
